- protocolText: Toxicity in subcutaneously injected NMRI mouse
- Format: organism-based
- conditionLabel: in vivo, sc
assayMetric: LD50 (mg/kg)

| structureAsSmiles | units | resultNumber |
| --- | --- | --- |
| O=c1cc(CO)occ1O | mg/kg | 1400 |

// data source = ChEMBL document CHEMBL1146266
